For each record, write down the corresponding IC50.
Tested on: Candida albicans preformed 24-h-old biofilm
Assay: Anti-biofilm test (XTT) on preformed 24-h-old biofilm
Format: cell-based, Candida albicans ATCC 28367
Details: Candida albicans, 48 h, 48 h of treatment, 24-h-old biofilm; read-out: Anti-biofilm activity MBIC50

Ask | Item under review: CCCCCC(=O)Cc1cc(O)c(O)c2c1C(=O)Oc1cc(O)c(C(=O)O)c(CCCCC)c1O2 [Compound 10, 3-hydroxyphysodic acid] . Reported IC50?
Reply | 100 µg/mL

Ask | Thanks! And COc1cc(C)c(C(=O)Oc2c(C)c(C(=O)O)c(O)c(C=O)c2O)c(O)c1C(=O)O ?
Reply | > 200 µg/mL

Ask | Same for COc1cc(C)c2c(c1C=O)Oc1c(c(C)c(O)c3c1C(O)OC3=O)OC2=O (stereo not shown)
Reply | > 200 µg/mL

Ask | Similarly, COc1cc(C)c(C(=O)Oc2cc(C)c(C(=O)O)c(O)c2C)c(O)c1C(=O)O ?
Reply | > 200 µg/mL

Ask | How about this compound: Cc1cc(O)c(C=O)c2c1C(=O)Oc1c(CO)c(O)c3c(c1O2)[C@@H](O)OC3=O
Reply | > 200 µg/mL

Ask | And COc1cc(C)c(C(=O)Oc2cc(C)c(C(=O)O)c(O)c2)c(O)c1 ?
Reply | ≤ 12.5 µg/mL

Ask | Can you handle Cc1cc(O)c(C=O)c2c1C(=O)Oc1c(C)c(O)c3c(c1O2)C(O)OC3=O (stereo not shown) next?
Reply | > 200 µg/mL

Ask | What do you get for CCCCCC(=O)Cc1cc(O)cc2c1C(=O)Oc1cc(O)c(C(=O)O)c(CCCCC)c1O2 ?
Reply | > 200 µg/mL

Ask | Also, Cc1cc(OC(=O)c2c(C)cc(OC(=O)c3c(C)cc(O)cc3O)cc2O)cc(O)c1C(=O)O please.
Reply | > 200 µg/mL

Ask | Repeat with COC(=O)c1c(C)cc(OC(=O)c2c(C)cc(O)c(C=O)c2O)c(C)c1O
Reply | > 200 µg/mL
